These entries and their values trace back to PubChem BioAssay (NCI).

Test system: BT-549 breast
assayText: NCI-60 one-dose screen, 48 h
conditionLabel: 10 µM unless noted
The panel holds about 83,000 compounds, 20% with a hit somewhere; the sample as a whole holds those more often. Activity calls are given as the source filed them. The calls were made as follows: active = growth percent below 10; inactive = the rest.
// one of label 1 for active, label 0 for inactive, no free text

Worked examples, 5 molecules total:
[[record]]
molecule = "COc1cc(C2CC(c3ccc(SC)cc3)=NN2C(C)=O)cc(OC)c1OC (stereo unspecified)"
cat = "label 0"

[[record]]
molecule = "Cc1ccc(-c2nc(N3CCN(CC(=O)Nc4ccc(Cl)c(C(F)(F)F)c4)CC3)c3ccccc3n2)cc1"
cat = "label 0"

[[record]]
molecule = "COc1nc2ccc(C)cc2cc1-c1nc2c(cnn2-c2ccc(Br)cc2)c(=O)[nH]1"
cat = "label 0"

[[record]]
molecule = "Cc1c(C(=O)N[C@@H](Cc2ccccc2)C(=O)C(=O)NCc2ccc(F)cc2)[nH]c2ccccc2c1=O"
cat = "label 0"

[[record]]
molecule = "CC1Cc2ccccc2N1NC(=O)c1ccc(Cl)c(S(N)(=O)=O)c1 (stereo unspecified)"
cat = "label 0"


Any idea what this test logged for O=C(CCCCCCSc1nc(-c2ccccc2)cc(-c2ccccc2)n1)NO ? label 0

Any idea what this test logged for COc1ccc(/C=C/c2c(C(=O)/C=C/c3ccc(Cl)cc3)c(C)nc3ccccc23)cc1 ? label 0

Any idea what this test logged for O=c1c2cc(C(F)(F)F)ccc2sc2c(NCCCNCCO)nc3ccccc3c12 ? label 0

Any idea what this test logged for CC1=C(SCCC(=O)OC(C[Se]C2=C(C)C(=O)c3ccccc3C2=O)C(=O)NC(C)(C)C)C(=O)c2ccccc2C1=O (stereo unspecified) ? label 1

Any idea what this test logged for CCc1ccc(Oc2c(-c3ccc(OCc4ccc(Cl)cc4)cc3O)n[nH]c2C(F)(F)F)cc1 ? label 0

Any idea what this test logged for C[C@]12CC[C@@H]3c4cc(OC(F)F)c(OS(N)(=O)=O)cc4CC[C@H]3[C@@H]1CC[C@@H]2OS(N)(=O)=O ? label 0

Any idea what this test logged for O=C(Cc1ccc(F)c(Cl)c1)Nc1cc(C2(C(F)(F)F)CC2)nn1Cc1ccccc1 ? label 0

Any idea what this test logged for Cc1nn(-c2ccccc2)c(-n2ccnc2)c1/C=N/Nc1nc(-c2ccc(Cl)c(Cl)c2)cs1 ? label 0

Any idea what this test logged for C#Cc1cccc(NC(=O)Nc2ccccc2NC(=O)CCl)c1 ? label 1

Any idea what this test logged for COc1ccc(C2=Nn3c(nnc3-c3cc(Cl)cc(Cl)c3Cl)SC2)cc1 ? label 1

Any idea what this test logged for COc1ccc2c(c1)c(-c1nn3cc(-c4cccs4)nc3s1)cn2C ? label 0

Any idea what this test logged for O=c1[nH]c2c(ccc3cnccc32)c2c1CCC2 ? label 1

Any idea what this test logged for COc1cc(C(=O)N/N=C/c2cc3cc(OCc4ccccc4)ccc3nc2OC)cc(OC)c1OC ? label 0

Any idea what this test logged for CCOC(=O)c1c(C)oc2ncnc(N3CCN(C(=O)COc4ccc(C(C)(C)C)cc4)CC3)c12 ? label 0

Any idea what this test logged for COc1cccc(-c2nn(-c3ccccc3)cc2-c2ccnc(N3CCOCC3)c2)c1 ? label 0

Any idea what this test logged for O=C(Nc1ccc(Cl)cc1F)c1cc(Cl)ccc1O ? label 1

Any idea what this test logged for O=C(COc1ccc(/C=C2\Cc3ccc(Cl)cc3C2=O)cc1)Nc1nc2ccccc2s1 ? label 0

Any idea what this test logged for NCCCNc1nc2ccc(Cl)cc2c2c(=O)c3cc(F)ccc3sc12 ? label 0

Any idea what this test logged for c1ccc2cc(C[n+]3ccn(CCCCCCn4cc[n+](Cc5ccc6ccccc6c5)c4)c3)ccc2c1 ? label 1

Any idea what this test logged for COc1ccc(-n2c(N)c(-c3nc4ccccc4[nH]3)cc(C#N)c2=O)cc1 ? label 0

Any idea what this test logged for S=C(c1cccs1)N1CCN(c2cccc(Cl)c2)CC1 ? label 0

Any idea what this test logged for O=C(Cc1ccc2c(c1)OCCO2)Nc1nc2ccc(F)cc2s1 ? label 0

Any idea what this test logged for COc1ccc(-c2nc(NCCO)[nH]c(=O)c2C#N)cc1 ? label 0

Any idea what this test logged for Nc1nc(Cl)cc(=O)n1Cc1ccccc1 ? label 0

---

Test system: HCT-15 colon
assayText: NCI-60 one-dose screen, 48 h
conditionLabel: 10 µM unless noted
About 83,000 compounds went through this panel and 20% of them were active in at least one assay; those are over-represented in the sample as a whole. Calls of active or inactive are those of the source. How the source made its calls: active means growth percent below 10; inactive means the rest.
// one of active, inactive, no free text

Worked examples, 3 compounds total:
[[record]]
compound = "N#Cc1ccc(NC(=O)c2sc3nc4c(cc3c2N)C(=O)CCC4)cc1"
cat = "inactive"

[[record]]
compound = "Cc1ccc(C(=O)N/N=C/c2cccc(Oc3ccccc3)c2)cn1"
cat = "inactive"

[[record]]
compound = "Cc1c(C(=O)N[C@@H](Cc2ccccc2)C(=O)C(=O)NCc2ccc(F)cc2)[nH]c2ccccc2c1=O"
cat = "inactive"


Any idea what this test logged for COc1ccc(-c2csc(NC(=O)N3CCN(c4cc5c(cc4F)c(=O)c(C(=O)O)cn5C4CC4)CC3)n2)cc1 ? inactive

Any idea what this test logged for Cc1cccc2c3c(sc12)C(c1ccc(Cl)cc1)C(C#N)=C(/N=C/c1ccc(Cl)cc1)O3 (stereo not given) ? active

---

As shown below, each of these compounds has a reported growth value.
Tested on: COLO 205 colon
assayText: NCI-60 one-dose screen, 48 h (100 = growth as untreated, 0 = no growth, -100 = all killed)
conditionLabel: 10 µM unless noted
Compounds without any hit were thinned out: in the full panel of roughly 83,000, 20% have a hit.
Report the value in % with no unit label.

The examples below pair each entry with its known result.
[[record]]
compound = "O=C(Nc1ccc(I)cc1F)c1cc(I)ccc1O"
systemundertest = "COLO 205 colon"
measuredparameter = "growth"
readoutunits = "%"
readoutvalue = 91.1

[[record]]
compound = "Cc1ccc(-c2nc(N3CCN(C(=O)c4ccc(OC(F)(F)F)cc4)CC3)c3ccccc3n2)cc1"
systemundertest = "COLO 205 colon"
measuredparameter = "growth"
readoutunits = "%"
readoutvalue = 91.1

[[record]]
compound = "COc1ccc(-n2c(N)c(-c3nc4ccccc4[nH]3)cc(C#N)c2=O)cc1"
systemundertest = "COLO 205 colon"
measuredparameter = "growth"
readoutunits = "%"
readoutvalue = 105

[[record]]
compound = "COc1ccc(-c2nc(NN)c3c(C)nn(-c4ccc(F)cc4)c3n2)cc1"
systemundertest = "COLO 205 colon"
measuredparameter = "growth"
readoutunits = "%"
readoutvalue = 35.4

[[record]]
compound = "COc1cccc(-c2nc(-c3ccc(NC(=O)c4ccccc4)cc3)[nH]c2-c2ccnc(Br)c2)c1"
systemundertest = "COLO 205 colon"
measuredparameter = "growth"
readoutunits = "%"
readoutvalue = 16.7

[[record]]
compound = "Oc1c(I)cc(I)cc1CNCCCN(Cc1ccccn1)Cc1ccccn1"
systemundertest = "COLO 205 colon"
measuredparameter = "growth"
readoutunits = "%"
readoutvalue = -34.2

[[record]]
compound = "COc1ccc2c(c1)c(-c1nn3cc(-c4cccs4)nc3s1)cn2C"
systemundertest = "COLO 205 colon"
measuredparameter = "growth"
readoutunits = "%"
readoutvalue = 64.5

[[record]]
compound = "CC(=O)CC(c1ccccc1)c1c(C)[nH]c2ccccc12 (stereo not given)"
systemundertest = "COLO 205 colon"
measuredparameter = "growth"
readoutunits = "%"
readoutvalue = 107


Now look at this one.
I looked up COc1cc(C(=O)N/N=C/c2cc3cc(OCc4ccccc4)ccc3nc2OC)cc(OC)c1OC and its growth for COLO 205 colon was 102

---

Tested on: SF-295 CNS
assayText: NCI-60 one-dose screen, 48 h
conditionLabel: 10 µM unless noted
Compounds without any hit were thinned out: in the full panel of roughly 83,000, 20% have a hit. Calls of active or inactive are those of the source. Rule for the calls: active = growth percent below 10; inactive = the rest.
// one of t (active), f (inactive), no free text

Worked examples, 4 compounds total:
[[record]]
compound = "COc1ccc(C(=O)COC(=O)[C@H](C[Se][Se]C[C@H](NC(=O)c2ccc(Br)cc2F)C(=O)OCC(=O)c2ccc(OC)cc2)NC(=O)c2ccc(Br)cc2F)cc1"
systemundertest = "SF-295 CNS"
cat = "t"

[[record]]
compound = "CCc1cccc2c3c(sc12)C(c1ccc(Cl)cc1)C(C#N)=C(N)O3 (centres undefined)"
systemundertest = "SF-295 CNS"
cat = "t"

[[record]]
compound = "COc1ccc(S(=O)(=O)n2cc(C3OC(c4cc(OC)c(OC)c(OC)c4)=NN3C(C)=O)c3ccccc32)cc1OC (centres undefined)"
systemundertest = "SF-295 CNS"
cat = "f"

[[record]]
compound = "CN(C)c1ccc(/C=N\\Nc2cc(=O)[nH]c3ccc(Cl)cc23)cc1"
systemundertest = "SF-295 CNS"
cat = "f"


As a next step, examine the compound that follows.
Any idea what this test logged for COc1ccc2c(c1)c(-c1nn3cc(-c4cccs4)nc3s1)cn2C ? f
